These data points were gathered from patent US20160052926A1.

Please respond with reported pIC50 for every item in the list.
STUDY TARGET: Recombinant human FGFR2 (Homo sapiens)
Sequence (P21802 22-821): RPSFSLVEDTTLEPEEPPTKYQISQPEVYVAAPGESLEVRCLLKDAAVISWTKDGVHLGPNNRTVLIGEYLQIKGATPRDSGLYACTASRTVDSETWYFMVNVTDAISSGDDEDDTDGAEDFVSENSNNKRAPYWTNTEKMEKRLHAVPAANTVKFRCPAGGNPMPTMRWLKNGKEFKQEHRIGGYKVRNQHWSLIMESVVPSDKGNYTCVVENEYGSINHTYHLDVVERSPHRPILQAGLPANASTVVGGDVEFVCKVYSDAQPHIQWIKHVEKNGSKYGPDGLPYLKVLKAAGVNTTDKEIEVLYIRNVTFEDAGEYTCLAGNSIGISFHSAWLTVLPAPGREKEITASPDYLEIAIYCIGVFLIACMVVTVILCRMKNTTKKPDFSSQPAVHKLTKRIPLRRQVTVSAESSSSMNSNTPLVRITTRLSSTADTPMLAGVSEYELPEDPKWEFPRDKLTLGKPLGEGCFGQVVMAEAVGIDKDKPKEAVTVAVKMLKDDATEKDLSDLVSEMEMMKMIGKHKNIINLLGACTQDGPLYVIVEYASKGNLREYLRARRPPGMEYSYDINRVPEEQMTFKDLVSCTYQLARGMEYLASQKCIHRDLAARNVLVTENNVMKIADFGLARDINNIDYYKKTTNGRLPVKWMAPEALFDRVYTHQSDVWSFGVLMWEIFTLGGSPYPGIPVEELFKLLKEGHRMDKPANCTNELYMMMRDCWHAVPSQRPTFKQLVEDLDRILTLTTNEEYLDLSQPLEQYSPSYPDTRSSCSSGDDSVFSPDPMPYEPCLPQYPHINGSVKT
EXPERIMENTAL PROTOCOL: Transcreener Kinase Assay of FGFR2
Assay type: biochemical
RECORDED CONDITIONS: read-out: FGFR2 (FP) IC50
For clarity, pIC50 is expressed as the negative log10 of concentration in mol/L.

Given CCN1CCN(c2ccc(Nc3ncc(CCc4cc(C(=O)NC)cc5occc45)cn3)cc2)CC1 , state its recorded pIC50.
6.63

Quick one: pIC50 for CNC(=O)c1cc(CCc2cnc(Nc3ccc(N4CCCCC4=O)cc3)nc2)c(F)c(OC)c1 ?
7.89

Query (compound): CNC(=O)c1cc(CCc2cnc(Nc3cnn(C[C@@H](C)O)c3)nc2)c(Cl)c(OC)c1 ; field requested: pIC50
8.22

Form field: reported pIC50 of CNC(=O)c1cc(CCc2cnc(Nc3cnn(C4CC4)c3)nc2)c(F)c(OC)c1
8.15

Fill in: pIC50 of CCN1CCN(c2ccc(Nc3ncc(CCc4cc(C(=O)NC5CC5)cc5occc45)cn3)cc2)CC1 is ___
6.77

What does the record list as pIC50 for CNC(=O)c1cc(CCc2cnc(Nc3cnn(C4CCOCC4)c3)nc2)c(F)c(OC)c1 ?
8.22

If you can, please state the reported pIC50 value of CNC(=O)c1cc(CCc2cnc(Nc3cnc4ccnn4c3)nc2)c(F)c(OC)c1 .
7.28

Value lookup for pIC50; key = CCN1CCN(c2ccc(Nc3ncc(CCc4cc(C(=O)NOC)cc5occc45)cn3)cc2)CC1
7.92
